# Measured On: BTK (Homo sapiens)
# Sequence (Q06187 402-655 limits assumed): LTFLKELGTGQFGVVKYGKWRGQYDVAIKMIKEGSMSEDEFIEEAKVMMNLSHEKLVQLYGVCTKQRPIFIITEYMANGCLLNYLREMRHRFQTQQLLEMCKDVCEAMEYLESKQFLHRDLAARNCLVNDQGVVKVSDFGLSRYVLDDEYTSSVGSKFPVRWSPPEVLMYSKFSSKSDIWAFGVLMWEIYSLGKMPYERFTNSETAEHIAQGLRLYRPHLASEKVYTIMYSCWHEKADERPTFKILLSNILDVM
# Protocol Details: biochemical
# Experimental Setup: read-out: BTK inhibition (%)
Where a SMILES comes first, the peptide text is derived from it. [ ]: non-standard residue; d: D form. The star is where a group is joined. Dolaproine = CO[C@@H]([C@@H]1CCCN1)[C@@H](C)C(=O)O; Dil = CC[C@H](C)[C@H](NC)[C@@H](CC(=O)O)OC; X2 = C[C@@H](N*)[C@@H](O)c1ccccc1; NMeV = CN[C@H](C(=O)O)C(C)C
I would appreciate it if you labelled entries true when inhibition at 10 µM is -10% or higher, otherwise false.

1. COC1=C[C@@]23CCN(C)[C@@H](Cc4ccc(OC)c(O)c42)C3=CC1=O [PCM-0216320] ... true
2. CC(=O)Nc1ccc(OC[C@](C)(O)C(=O)Nc2ccc([N+](=O)[O-])c(C(F)(F)F)c2)cc1 [PCM-0094957] ... true
3. CC[C@H](C)[C@@H]([C@@H](CC(=O)N1CCC[C@H]1[C@H](OC)[C@@H](C)C(=O)N[C@H](C)[C@@H](O)c1ccccc1)OC)N(C)C(=O)[C@@H](NC(=O)[C@@H](NC)C(C)C)C(C)C [PCM-0215521] (H-[NMeV]V[Dil][Dolaproine]-X2) ... true
4. Cc1ccccc1CN1C(=O)C2=C(CCN(Cc3ccccc3)C2)N2CCN=C12 [PCM-0215534] ... false
5. C[C@@]12N[C@@H](Cc3ccccc31)c1ccccc12 [PCM-0086525] ... false
6. O=C(O)CCCCCCCCCO [PCM-0216560] ... true
7. Cc1cc(N2CCN([C@@H]3CN[C@H](C(=O)N4CCSC4)C3)CC2)n(-c2ccccc2)n1 [PCM-0214840] ... true
8. C=C[C@@]12CN(C)[C@H]3C[C@]14C(=Nc1ccccc14)[C@@H]1C[C@@H]2[C@@H]3CO1 [PCM-0216515] ... false
9. OC(c1ccccc1)(c1ccccc1)C1CCNCC1 [PCM-0085781] ... false
10. CC(=O)O[C@@H]1[C@H]2[C@@H](OC(=O)Cc3ccccc3)[C@@H](C)C[C@]2(OC(C)=O)C(=O)/C(C)=C/[C@@H]2[C@H](CC[C@]13CO3)C2(C)C [PCM-0216313] ... false
11. C=CCCCCCCCCC(=O)O[C@H]1CC[C@H]2[C@@H]3CCC4=CC(=O)C=C[C@]4(C)[C@H]3CC[C@]12C [PCM-0215894] ... true
12. CC(C)(C)[C@]1(O)C[C@@H]2OC(=O)C[C@@]23C(=O)O[C@@H]2OC(=O)[C@H](O)[C@]213 [PCM-0094827] ... true
13. C[C@]12C=CC(=O)C=C1CC[C@@H]1[C@@H]2CC[C@@]2(C)[C@H]1CC[C@]2(C)O [PCM-0215063] ... false
14. COC1=C[C@]23CCCN2CCc2cc4c(cc2[C@@H]3[C@@H]1O)OCO4 [PCM-0214978] ... true
15. CC1(C)CC(O)CC(C)(C)N1[O] [PCM-0095391] ... true

* * *

inhibition at 10 µM by entry:
# Measured On: BTK (Homo sapiens)
# Protocol Details: biochemical
# Experimental Setup: read-out: BTK inhibition (%), 0.75 uM BTK, […] probe 3l, 15 min preincubation
*1 amine or outer side, *2 acyl side, *3 side chain or, on linkers, in order; H or OH if unused. Where a SMILES comes first, the peptide text is derived from it. Bridges are numbered along the chain shown (N, C = ends). [ ]: non-standard residue; d: D form. The star is where a group is joined. Orn(4R-OH,5R-OH) = O=C([C@H](C[C@@H](O)[C@@H](O)N[*:3])N[*:1])[*:2]; Tetradecanoyl(10R,12S-Me2) = CC[C@H](C)C[C@H](C)CCCCCCCCC(=O)*; hTyr(3S-OH,4S-OH) = N[C@H](C(=O)O)[C@H](O)[C@@H](O)c1ccc(O)cc1; Gln(3R-OH) = NC(=O)C[C@@H](O)[C@H](N)C(=O)O; Pro(3S-OH) = O=C(O)[C@H]1NCC[C@@H]1O; Hyp = O=C(O)[C@@H]1C[C@@H](O)CN1
Readout: inhibition at 10 µM

1. CC(=O)O[C@H]1C(=O)[C@@]2(C)[C@H]([C@H](OC(=O)c3ccccc3)[C@]3(O)C[C@H](OC(=O)[C@H](O)[C@@H](NC(=O)c4ccccc4)c4ccccc4)C(C)=C1C3(C)C)[C@]1(OC(C)=O)CO[C@@H]1C[C@@H]2O ... -17.9%
2. CNC(=O)c1c(C)oc2cc(Oc3ncnc4cc(OC)c(OC)cc34)ccc12 ... 1.4%
3. Cc1ccc(C(C)C)cc1O ... -21.4%
4. Cn1c(=O)cc(N2CCC[C@@H](N)C2)n(Cc2ccccc2C#N)c1=O ... -11%
5. CCOC(=O)c1ncn2c1CN(C)C(=O)c1cc(F)ccc1-2 ... 3.1%
6. C=C1CCC[C@]2(C)C[C@@H]3OC(=O)C(C)=C3C[C@@H]12 ... -38.6%
7. Nc1ccc(C(=O)NCC(=O)O)cc1 ... 28%
8. OC[C@H]1NC[C@H](O)[C@@H](O)[C@@H]1O ... -9.3%
9. Nc1cccc2c1C(=O)N(C1CCC(=O)NC1=O)C2=O (centres unmarked) ... 11%
10. CC(C)(CCCCCC(O)CCCCCC(C)(C)C(=O)O)C(=O)O ... 0.7%
11. Cc1cc(Nc2ncc(Cl)c(Nc3ccccc3S(=O)(=O)C(C)C)n2)c(OC(C)C)cc1C1CCNCC1 ... 69.7%
12. CC[C@H](C)C[C@H](C)CCCCCCCCC(=O)N[C@H]1C[C@@H](O)[C@@H](O)NC(=O)[C@@H]2[C@@H](O)CCN2C(=O)[C@H]([C@H](O)CC(N)=O)NC(=O)[C@H]([C@H](O)[C@@H](O)c2ccc(O)cc2)NC(=O)[C@@H]2C[C@@H](O)CN2C(=O)[C@H]([C@@H](C)O)NC1=O [PCM-0216459] ({Tetradecanoyl(10R,12S-Me2)}-[Orn(4R-OH,5R-OH)]T[Hyp][hTyr(3S-OH,4S-OH)][Gln(3R-OH)][Pro(3S-OH)]; lactam 1-C) ... -42.5%
13. CCCCCCCCCCCCCC(=O)OCC(COC(=O)CCCCCCCCCCCCC)OC(=O)CCCCCCCCCCCCC ... -18.7%
14. CCN=C1N[C@@H]2[C@@H](O)[C@H](O)[C@@H](CO)O[C@@H]2S1 ... 3.1%

* * *

# Measured On: BTK (Homo sapiens)
# Protocol Details: biochemical
# Experimental Setup: read-out: BTK inhibition (%), 0.75 uM BTK, […] probe 3l, 15 min preincubation
Readout: inhibition at 10 µM (%)

1) CC1=CCC2C(C1)C2(C)C (stereo not drawn) [PCM-0216215] ... 8.5
2) O=C(O)c1cccnc1 [PCM-0086368] ... 3.1
3) CCN(CC)C(=O)/C(C#N)=C/c1cc(O)c(O)c([N+](=O)[O-])c1 [PCM-0085960] ... 38.1
4) O=C(Nc1ncc([N+](=O)[O-])s1)c1ccccc1O [PCM-0216250] ... 7.7
5) CCS(=O)(=O)N1CC(CC#N)(n2cc(-c3ncnc4[nH]ccc34)cn2)C1 [PCM-0095473] ... -20
6) Oc1ccc2c(c1)OC[C@@H]1c3cc4c(cc3O[C@H]21)OCO4 [PCM-0216297] ... -20.1
7) CC(/C=C1\SC(=S)N(CC(=O)O)C1=O)=C\c1ccccc1 [PCM-0095314] ... -47.7
8) COc1ccc(Cl)c(Nc2nc3ccccc3nc2NS(=O)(=O)c2cccc(NC(=O)C(C)(C)N)c2)c1 [PCM-0215473] ... 24.1
9) CCCCNc1ncc(C(=O)NCc2ccc(-n3ccnc3)cc2)c(NC2CCC(O)CC2)n1 (stereo not drawn) [PCM-0215319] ... 2.1
10) COc1ccc(CCNCC(O)COc2cccc(C)c2)cc1OC (stereo not drawn) [PCM-0216046] ... -4.6
11) Nc1nc(N)c2nc(-c3cccc(O)c3)cnc2n1 [PCM-0095537] ... -35.7
12) Nc1nnc(-c2cccc(Cl)c2Cl)c(N)n1 [PCM-0065504] ... 16.3
13) O=C(Nc1ccc2c(O)cc(S(=O)(=O)O)cc2c1)Nc1ccc2c(O)cc(S(=O)(=O)O)cc2c1 [PCM-0216169] ... 29.3
14) Cc1nc(C(=O)NCC(=O)O)c(O)c2ccc(Oc3ccccc3)cc12 [PCM-0094891] ... -5.4
15) O=C(CCc1ccc(O)cc1)c1c(O)cc(O)cc1O [PCM-0065552] ... 15.2
16) Cc1ncc(Cl)cc1NCc1ccc(C(=O)N[C@@H](CC2CCCC2)C(=O)NC2CC2)s1 [PCM-0215421] ... 15.4
17) CN(CC(=O)O)C(=N)N [PCM-0216212] ... -30.6
18) NCCCC[C@H](N[C@@H](CCc1ccccc1)C(=O)O)C(=O)N1CCC[C@H]1C(=O)O [PCM-0085899] ... 1.7
19) CN1CCC[C@H]1c1cccnc1 [PCM-0215258] ... -1.6
20) C[C@H](CC[C@@]1(O)O[C@H]2C[C@H]3[C@@H]4CC=C5C[C@@H](O[C@@H]6O[C@H](CO)[C@@H](O[C@@H]7O[C@@H](C)[C@H](O)[C@@H](O)[C@H]7O)[C@H](O)[C@H]6O[C@@H]6O[C@@H](C)[C@H](O)[C@@H](O)[C@H]6O)CC[C@]5(C)[C@H]4CC[C@]3(C)[C@H]2[C@@H]1C)CO[C@@H]1O[C@H](CO)[C@@H](O)[C@H](O)[C@H]1O [PCM-0215060] ... -28
21) c1cnc2cc3c(cc2n1)[C@@H]1CNC[C@H]3C1 [PCM-0064570] ... -31.5
22) CCCSc1ccc2nc(NC(=O)OC)[nH]c2c1 [PCM-0085774] ... -10.1
23) O=C(NCc1ccccc1)c1csc(Nc2ccncn2)n1 [PCM-0095135] ... -9
24) C[C@]12CCC3=C4CCC(=O)C=C4CC[C@H]3[C@@H]1CC[C@@]2(O)CC#N [PCM-0095005] ... -11.7
25) COc1ccc2cccc(CCNC(C)=O)c2c1 [PCM-0065343] ... -16.3
26) C[C@]12C=CC(=O)C=C1CC[C@H]1[C@@H]3C[C@@H](O)[C@](O)(C(=O)CO)[C@@]3(C)C[C@H](O)[C@@]12F [PCM-0064944] ... 2.1
27) C/C(=N\NC(=S)N1CCC1)c1ccccn1 [PCM-0095797] ... -13.9
28) COc1ccc2c(c1)c(C1=C(c3c[nH]c4ccccc34)C(=O)NC1=O)cn2CCCN(C)C [PCM-0095393] ... 24.8
29) O=C(O)P(=O)(O)O [PCM-0090233] ... 1.6
30) C[C@@H](NCCCc1cccc(C(F)(F)F)c1)c1cccc2ccccc12 [PCM-0095032] ... 24.1
31) C[C@H]1O[C@@H](O[C@H]2CC[C@@]3(C)[C@@H](CC[C@]4(C)[C@@H]3C=C[C@]35OC[C@@]6(CCC(C)(C)C[C@H]63)[C@@H](O)C[C@]54C)[C@]2(C)CO)[C@H](O)[C@@H](O[C@@H]2O[C@H](CO)[C@@H](O)[C@H](O)[C@H]2O)[C@H]1O [PCM-0216249] ... -23.4
32) C[C@H]1[C@H](C)CC[C@]2(C(=O)O)CC[C@]3(C)C(=CC[C@@H]4[C@@]5(C)C[C@@H](O)[C@H](O)C(C)(C)[C@@H]5CC[C@]43C)[C@H]12 [PCM-0216596] ... 6.2
33) O=C1C(c2[nH]c3ccccc3c2O)=Nc2ccccc21 [PCM-0215050] ... 28.8
